subjectOfTest: human Nav1.7 (Homo sapiens (Human))
Sequence (Q15858 other isoform, or with tags, fused parts or gaps): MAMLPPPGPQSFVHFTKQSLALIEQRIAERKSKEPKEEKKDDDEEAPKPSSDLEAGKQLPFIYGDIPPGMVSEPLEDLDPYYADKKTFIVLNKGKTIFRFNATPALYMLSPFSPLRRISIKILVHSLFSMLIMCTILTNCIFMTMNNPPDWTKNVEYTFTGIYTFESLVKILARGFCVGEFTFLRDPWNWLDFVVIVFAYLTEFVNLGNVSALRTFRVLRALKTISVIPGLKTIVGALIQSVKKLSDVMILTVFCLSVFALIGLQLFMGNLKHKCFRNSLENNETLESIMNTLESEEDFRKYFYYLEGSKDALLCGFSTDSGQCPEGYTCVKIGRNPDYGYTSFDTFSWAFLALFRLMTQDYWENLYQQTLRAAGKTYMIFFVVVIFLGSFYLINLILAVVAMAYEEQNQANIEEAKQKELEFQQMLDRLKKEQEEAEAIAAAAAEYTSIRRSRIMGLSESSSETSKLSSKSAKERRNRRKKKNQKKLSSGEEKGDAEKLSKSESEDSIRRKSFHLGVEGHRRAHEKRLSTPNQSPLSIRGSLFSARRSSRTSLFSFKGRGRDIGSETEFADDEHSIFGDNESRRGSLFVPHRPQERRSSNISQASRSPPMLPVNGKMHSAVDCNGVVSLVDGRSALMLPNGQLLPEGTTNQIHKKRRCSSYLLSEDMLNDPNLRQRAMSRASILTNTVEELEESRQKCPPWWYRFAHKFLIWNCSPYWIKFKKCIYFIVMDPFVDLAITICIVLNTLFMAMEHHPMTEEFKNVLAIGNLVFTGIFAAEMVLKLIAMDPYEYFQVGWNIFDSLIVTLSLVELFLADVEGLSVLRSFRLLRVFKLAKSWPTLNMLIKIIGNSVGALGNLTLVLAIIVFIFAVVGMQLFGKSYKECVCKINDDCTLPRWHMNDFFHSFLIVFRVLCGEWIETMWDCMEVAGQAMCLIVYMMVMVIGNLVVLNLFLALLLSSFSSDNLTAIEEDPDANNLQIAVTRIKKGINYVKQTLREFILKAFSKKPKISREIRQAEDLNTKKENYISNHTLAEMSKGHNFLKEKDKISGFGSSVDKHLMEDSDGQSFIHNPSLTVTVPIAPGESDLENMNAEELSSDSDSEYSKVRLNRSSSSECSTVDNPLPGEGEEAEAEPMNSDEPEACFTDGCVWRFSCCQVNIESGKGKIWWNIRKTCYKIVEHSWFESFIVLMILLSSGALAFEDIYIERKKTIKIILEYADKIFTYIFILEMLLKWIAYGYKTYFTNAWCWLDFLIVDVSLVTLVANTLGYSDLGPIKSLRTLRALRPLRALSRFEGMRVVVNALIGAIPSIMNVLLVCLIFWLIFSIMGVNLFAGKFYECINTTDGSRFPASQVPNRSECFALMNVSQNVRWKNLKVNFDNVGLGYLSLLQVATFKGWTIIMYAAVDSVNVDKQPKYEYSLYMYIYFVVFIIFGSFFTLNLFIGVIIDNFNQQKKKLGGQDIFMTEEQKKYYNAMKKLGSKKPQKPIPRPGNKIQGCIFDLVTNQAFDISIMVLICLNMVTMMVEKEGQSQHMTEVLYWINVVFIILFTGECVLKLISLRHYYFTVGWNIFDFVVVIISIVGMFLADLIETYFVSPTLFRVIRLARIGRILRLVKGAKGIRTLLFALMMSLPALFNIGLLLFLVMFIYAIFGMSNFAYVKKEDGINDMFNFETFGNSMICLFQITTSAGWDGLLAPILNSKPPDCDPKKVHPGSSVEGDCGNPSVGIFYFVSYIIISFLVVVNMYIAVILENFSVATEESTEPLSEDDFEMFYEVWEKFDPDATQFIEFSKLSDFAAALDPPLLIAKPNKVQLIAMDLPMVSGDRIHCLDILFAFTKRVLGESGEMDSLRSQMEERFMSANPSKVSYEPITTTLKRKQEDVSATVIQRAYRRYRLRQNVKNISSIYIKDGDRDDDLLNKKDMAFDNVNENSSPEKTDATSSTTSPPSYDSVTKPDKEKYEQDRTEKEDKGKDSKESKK
measurementDescription: FLIPR sodium dye assay (CoroNa Green) with KCl and test article pre-incubation
Type: cell-based
appliedConditions: read-out: Nav1.7 Activity FLIPR assay IC50
Response field label takes T when IC50 is strictly below 400 nM and F in all other cases.

In: # check: IC50 < 400 nM for C[C@H](Nc1cc(C(N)=O)nc(Oc2ccc(C(F)(F)F)cc2-c2ccnnc2)n1)C(N)=O [Cpd No. 72]
Out: F

In: Is the reported IC50 for NC(=O)c1cc(N2CCC[C@H]2C(N)=O)nc(-c2ccc(Oc3ccc(Cl)cc3F)cc2)n1 [compound 78] strictly below 400 nM?
Out: T

In: IC50 under 400 nM? Item: CCOC(=O)[C@@H]1Cc2ccccc2N1c1cc(C(N)=O)nc(-c2ccc(Oc3ccc(F)cc3)cc2)n1 [Cpd No. 16]
Out: F

In: Please state whether IC50 is below 400 nM for NC(=O)c1cc(NC2(C(N)=O)CC2)nc(-c2ccc(Oc3ccc(F)cc3)cc2)n1 [Cpd No. 8]
Out: F

In: Answer whether the molecule CC(CC(N)=O)Nc1cc(C(N)=O)nc(-c2ccc(Oc3ccc(F)cc3)cc2)n1 (centres unmarked) [Cpd No. 23] has IC50 strictly less than 400 nM
Out: T

In: Would you kindly verify if IC50 of NC(=O)c1cc(N2CCC[C@H]2C(N)=O)nc(-c2ccc(Oc3ccc(C(F)(F)F)cc3)cc2)n1 [Cpd No. 91] is strictly less than 400 nM?
Out: T

In: Would you kindly verify if IC50 of C[C@H](Nc1cc(C(N)=O)nc(-c2ccc(Oc3ccc(F)cc3)cc2)n1)C(N)=O [Cpd No. 1] is strictly less than 400 nM?
Out: F

In: Please state whether IC50 is below 400 nM for CC(Nc1cc(C(N)=O)nc(-c2ccc(Oc3ccc(F)cc3)cc2)n1)C(N)=O (centres unmarked) [Cpd No. 22]
Out: F

* * *

subjectOfTest: hNav1.7 (Homo sapiens (Human), UniProt Q15858)
measurementDescription: Electrophysiology (EP) whole-cell patch clamp assay
Assay type: cell-based
appliedConditions: affinity for inactivated channels; hNav1.7 HEK-293; read-out: Nav1.7 Activity EP assay Ki
Exercise: state measured log10 of Ki for each of the compounds provided.
Form field - Quantity: Ki; Unit: nM; Scale: log10

In: Item under review: "C[C@H](Nc1cc(C(N)=O)nc(-c2ccc(Oc3ccc(C(F)(F)F)cn3)cc2)n1)C(N)=O" . Reported log10 of Ki?
Out: 2.62

In: Name the reported log10 of Ki value associated with the compound "C[C@H](Nc1cc(C(=O)O)nc(-c2ccc(Oc3ccc(F)cc3)cc2)n1)C(N)=O"
Out: 4.31

In: Record request: log10 of Ki value, item "C[C@H](Nc1cc(C(N)=O)nc(-c2ccc(Oc3ccc(Cl)cn3)cc2)n1)C(N)=O"
Out: 2.78

In: Which log10 of Ki reading was recorded for the compound "C[C@H](Nc1cc(C(=O)O)nc(-c2ccc(Oc3ccc(F)cc3)cc2)n1)C(=O)O" ?
Out: 4.61

In: Look at this compound and give its reported log10 of Ki. "C[C@H](Nc1cc(C(N)=O)nc(-c2ccc(Oc3ccc(Cl)cc3F)cc2)n1)C(N)=O"
Out: 1.20

In: Value lookup for log10 of Ki; key = "NC(=O)c1cc(N2CCC[C@H]2C(N)=O)nc(-c2ccc(Oc3ccc(F)cc3)cc2)n1"
Out: 1.89

In: Reported log10 of Ki, compound "NC(=O)c1cc(N[C@H]2CCNC2=O)nc(-c2ccc(Oc3ccc(C(F)(F)F)cn3)cc2)n1" : ____
Out: 1.92
